# IC50 per entry
# Assayed target: Stromelysin-1 (Homo sapiens, UniProt P08254)
# Sequence (P08254 whole entry): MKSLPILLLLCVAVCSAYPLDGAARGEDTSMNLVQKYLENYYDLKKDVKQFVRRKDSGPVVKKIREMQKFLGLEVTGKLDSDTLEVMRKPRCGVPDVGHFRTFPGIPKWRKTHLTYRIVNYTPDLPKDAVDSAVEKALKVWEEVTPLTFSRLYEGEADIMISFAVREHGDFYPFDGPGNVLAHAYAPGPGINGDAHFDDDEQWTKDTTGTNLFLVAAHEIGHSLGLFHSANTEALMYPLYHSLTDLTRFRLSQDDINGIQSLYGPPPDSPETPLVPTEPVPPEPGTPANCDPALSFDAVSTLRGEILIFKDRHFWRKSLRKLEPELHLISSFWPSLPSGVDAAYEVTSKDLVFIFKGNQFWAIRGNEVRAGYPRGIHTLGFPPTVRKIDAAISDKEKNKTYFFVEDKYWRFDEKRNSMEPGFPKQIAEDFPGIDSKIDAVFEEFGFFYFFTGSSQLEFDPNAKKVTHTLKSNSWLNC
# Experimental details: In vitro inhibition of recombinant human matrix metalloprotease-3 (MMP-3)
Measured property: IC50 (µM)

• O=C(O)CNS(=O)(=O)c1ccc(-c2ccc(Br)cc2)cc1 = 0.01
• O=C(CCc1ccccc1)NCCCC[C@H](NS(=O)(=O)c1ccc(-c2ccc(Br)cc2)cc1)C(=O)O = 0.01
• CC(C)[C@H](NS(=O)(=O)c1ccc(-c2ccc(F)cc2)cc1)C(=O)O = 0.01
